Data provenance is patent EP2436673A1.

system tested: Aβ1-42 monomers (Homo sapiens, UniProt P05067)
Construct: The native Aβ1-42 peptide was then obtained from the depsi peptide
Sequence (P05067 672-713 limits assumed): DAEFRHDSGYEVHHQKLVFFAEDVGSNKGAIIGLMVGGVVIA
experimental details: Surface Plasmon Resonance (SPR) binding to immobilized Aβ1-42 monomers
test context: Aβ1-42 monomers; rough estimate from Kon and Koff after global fitting, one-site model
endpoint: pKd
API: returns pKd as number; meaning -log10 of concentration in mol/L.

COc1cc(/C=C/c2cc(/C=C/c3ccc(O)c(OC)c3)n(CC(=O)NCc3cn(CCOCCOCCO)nn3)n2)ccc1O [TREG] on Aβ1-42 monomers (Homo sapiens, UniProt P05067) gives pKd = 4.64

====

system tested: Aβ1-42 fibrils (Homo sapiens)
Sequence (P05067 672-713 limits assumed): as above
experimental details: Surface Plasmon Resonance (SPR) binding to immobilized Aβ1-42 fibrils
test context: additional, fibril-specific binding component; two-sites model
endpoint: Kd
Remember to quote the unit after the number.

COc1cc(/C=C/c2cc(/C=C/c3ccc(O)c(OC)c3)n(CC(=O)NCc3cn(CCOCCOCCO)nn3)n2)ccc1O [TREG] on Aβ1-42 fibrils (Homo sapiens) gives Kd = 7 µM
